A compilation of Ki values for Rho-associated protein kinase 1 (Homo sapiens, UniProt Q13464) from the published literature.
assay readout: Ki

[[record]]
smiles_text = "C[C@H](Nc1cc(N2CCN(C)CC2)nc(-c2c[nH]c3ncc(Cl)cc23)n1)C(=O)NCC(F)(F)F"
result = "500 to 5000 nM"

[[record]]
smiles_text = "c1cc(-c2c[nH]c3nccc(Oc4ccc5c(c4)CNCC5)c23)cc(NC[C@@H]2CCCO2)n1"
result = "< 3 nM"

[[record]]
smiles_text = "Cc1ccc(CNc2cccc(-c3c[nH]c4ncc(-c5ccccc5)cc34)n2)cc1"
result = "500 to 5000 nM"

[[record]]
smiles_text = "COCCc1noc([C@@H](N)Cc2ccc(Oc3ccnc4[nH]cc(C)c34)c(F)c2)n1"
result = "5 to 50 nM"

[[record]]
smiles_text = "Fc1cnc(-c2c[nH]c3ncc(Cl)cc23)nc1NCc1cccc(Cl)c1"
result = "500 to 5000 nM"

[[record]]
smiles_text = "O=C(Cc1ccc(F)cc1)Nc1nc(-c2c[nH]c3ncccc23)cs1"
result = "< 500 nM"


---

pKi: −log10 of the molar value.
A compilation of pKi values for Rho-associated protein kinase 1 (Homo sapiens) from the published literature.
assay readout: pKi

[[record]]
smiles_text = "N[C@@H](Cc1ccc(Oc2ccnc3[nH]cc(I)c23)cc1)C(=O)NC1CCCCC1"
result = "> 8.52"

[[record]]
smiles_text = "CC(=O)N1[C@H](C)CN(c2cccc(-c3c[nH]c4ncc(NC(=O)C5=CCCC5)cc34)n2)C[C@@H]1C"
result = "5.30 to 6.30"

[[record]]
smiles_text = "CC(=O)N1[C@H](C)CN(c2cccc(-c3c[nH]c4ncc(NC(=O)c5cccnc5)cc34)n2)C[C@@H]1C"
result = "5.30 to 6.30"

[[record]]
smiles_text = "COc1cccc(CNC(=O)c2csc(-c3c[nH]c4ncccc34)n2)c1"
result = "> 6.30"


---

pKi: −log10 of the molar value.
A compilation of pKi values for Rho-associated protein kinase 1 (Homo sapiens) from the published literature.
assay readout: pKi

[[record]]
compound = "COCCCNC(=O)[C@@H](N)Cc1ccc(Oc2ccnc3[nH]cc(C)c23)cc1"
result = "> 8.52"

[[record]]
compound = "Cc1c[nH]c2nccc(Oc3ccc([C@H]4CNC[C@@H]4C(=O)NCc4ccccc4)cc3)c12 (racemic)"
result = "> 8.52"

[[record]]
compound = "O=C(Cc1ccc(F)cc1F)Nc1cc(-c2ccnc(F)c2)cs1"
result = "> 7.00"

[[record]]
compound = "Nc1cc(-c2csc(NC(=O)Cc3ccccc3F)n2)ccn1"
result = "> 7.00"

[[record]]
compound = "Fc1cnc(-c2c[nH]c3ncc(Cl)cc23)nc1NCc1ccc(Cl)cc1"
result = "5.30 to 6.30"

[[record]]
compound = "CC(=O)N1[C@H](C)CN(c2ccc(C#N)c(-c3c[nH]c4ncc(Cl)cc34)n2)C[C@@H]1C"
result = "5.30 to 6.30"

[[record]]
compound = "O=C(Cc1cccc(S(=O)(=O)N2CCOCC2)c1)Nc1nc(-c2c[nH]c3nccc(F)c23)cs1"
result = "> 6.30"

[[record]]
compound = "CC(=O)N1[C@H](C)CN(c2cccc(-c3c[nH]c4ncc(C(=O)N5CCOCC5)cc34)n2)C[C@@H]1C"
result = "5.30 to 6.30"

[[record]]
compound = "CC(=O)N1[C@H](C)CN(c2nc(-c3c[nH]c4ncc(Cl)cc34)ccc2C#N)C[C@@H]1C"
result = "> 6.30"

[[record]]
compound = "CN(C)CCNS(=O)(=O)c1cccc(CC(=O)Nc2nc(-c3c[nH]c4ncccc34)cs2)c1"
result = "> 6.30"


---

A compilation of pKi values for Rho-associated protein kinase 1 (Homo sapiens) from the published literature.
pKi: −log10 of the molar value.
assay readout: pKi

[[record]]
compound = "COCCCN1CNC(c2ccc(Oc3ccnc4[nH]cc(C)c34)cc2)CC1=O (stereo not shown)"
result = "< 7.52"

[[record]]
compound = "O=C(Cc1ccccc1)Nc1cc(-c2ccnc(F)c2)cs1"
result = "> 7.00"

[[record]]
compound = "N[C@@H](Cc1ccc(Oc2ccnc3[nH]cc(F)c23)cc1)C(=O)N1CCN(Cc2ccccc2)CC1"
result = "> 8.52"

[[record]]
compound = "Cc1cc(-c2csc(NC(=O)Cc3cccc(O)c3)c2)ccn1"
result = "> 7.00"


---

A compilation of Ki values for Rho-associated protein kinase 1 (Homo sapiens, UniProt Q13464) from the published literature.
assay readout: Ki

[[record]]
compound = "Cc1c[nH]c2nccc(Oc3ccc(C[C@H](N)c4nc(-c5cccnc5)no4)cc3F)c12"
study_system = "Rho-associated protein kinase 1 (Homo sapiens, UniProt Q13464)"
result = "5 to 50 nM"

[[record]]
compound = "Cc1c[nH]c2nccc(Oc3cccc(C(CN)CC(=O)NCCCN(C)C)c3)c12 (stereo not drawn)"
study_system = "Rho-associated protein kinase 1 (Homo sapiens, UniProt Q13464)"
result = "> 50 nM"

[[record]]
compound = "O=C(Cc1cccc(S(=O)(=O)N2CCOCC2)c1)Nc1cc(-c2c[nH]c3ncccc23)cs1"
study_system = "Rho-associated protein kinase 1 (Homo sapiens, UniProt Q13464)"
result = "< 500 nM"


---

A compilation of Ki values for Rho-associated protein kinase 1 (Homo sapiens, UniProt Q13464) from the published literature.
assay readout: Ki

[[record]]
compound = "Clc1cnc2[nH]cc(-c3cccc4cccnc34)c2c1"
study_system = "Rho-associated protein kinase 1 (Homo sapiens, UniProt Q13464)"
result = "500 to 5000 nM"

[[record]]
compound = "Cc1c[nH]c2nccc(Oc3ccc(C[C@H](N)C(=O)NC4CCN(C5CCC5)CC4)cc3F)c12"
study_system = "Rho-associated protein kinase 1 (Homo sapiens, UniProt Q13464)"
result = "< 3 nM"

[[record]]
compound = "Cc1c[nH]c2nccc(Oc3ccc(C[C@H](N)C(=O)NCCc4ccncc4)cc3)c12"
study_system = "Rho-associated protein kinase 1 (Homo sapiens, UniProt Q13464)"
result = "< 3 nM"

[[record]]
compound = "Cc1c[nH]c2ncnc(Oc3ccc(C[C@H](N)C(=O)N4C[C@@H](C)N(C)[C@@H](C)C4)cc3F)c12"
study_system = "Rho-associated protein kinase 1 (Homo sapiens, UniProt Q13464)"
result = "< 3 nM"

[[record]]
compound = "Cc1c[nH]c2nccc(Oc3ccc(C[C@H](N)C(=O)N4C[C@@H](C)N(C)[C@@H](C)C4)cc3F)c12"
study_system = "Rho-associated protein kinase 1 (Homo sapiens, UniProt Q13464)"
result = "< 3 nM"

[[record]]
compound = "NCc1cc(F)c(Oc2ccnc3[nH]cc(-c4ccnc(NCC5CC5)c4)c23)c(F)c1"
study_system = "Rho-associated protein kinase 1 (Homo sapiens, UniProt Q13464)"
result = "< 3 nM"

[[record]]
compound = "Cc1cc2c(Oc3ccc(C[C@H](N)C(=O)N4CCN(Cc5ccccc5)CC4)cc3F)ccnc2[nH]1"
study_system = "Rho-associated protein kinase 1 (Homo sapiens, UniProt Q13464)"
result = "> 30 nM"

[[record]]
compound = "C[C@@H](Nc1cccc(-c2c[nH]c3ncc(Cl)cc23)n1)c1ccc(F)cc1"
study_system = "Rho-associated protein kinase 1 (Homo sapiens, UniProt Q13464)"
result = "500 to 5000 nM"

[[record]]
compound = "CCOC(=O)c1cnc2[nH]cc(-c3cccc(N4C[C@@H](C)N(C(C)=O)[C@@H](C)C4)n3)c2c1"
study_system = "Rho-associated protein kinase 1 (Homo sapiens, UniProt Q13464)"
result = "< 500 nM"

[[record]]
compound = "Cc1c[nH]c2nccc(Oc3ccc(CN4CCC5(CCNC5)C4)cc3)c12 (stereo not shown)"
study_system = "Rho-associated protein kinase 1 (Homo sapiens, UniProt Q13464)"
result = "5 to 50 nM"


---

pKi: −log10 of the molar value.
A compilation of pKi values for Rho-associated protein kinase 1 (Homo sapiens, UniProt Q13464) from the published literature.
assay readout: pKi

[[record]]
compound = "CC(=O)N1[C@H](C)CN(c2cccc(-c3c[nH]c4ncc(C(=O)N(C)C)cc34)n2)C[C@@H]1C"
assay_readout = "pKi"
result = "5.30 to 6.30"

[[record]]
compound = "CC(C)OCC(=O)Nc1cc(-c2c[nH]c3nccc(Oc4ccc5c(c4)CNCC5)c23)ccn1"
assay_readout = "pKi"
result = "> 8.52"

[[record]]
compound = "COc1cccc(C2CCCN(c3nc(-c4c[nH]c5ncccc45)cs3)C2=O)c1 (stereo not shown)"
assay_readout = "pKi"
result = "> 6.30"

[[record]]
compound = "O=C(CNc1nc(-c2c[nH]c3ncc(Cl)cc23)ncc1F)NCC(F)(F)F"
assay_readout = "pKi"
result = "5.30 to 6.30"

[[record]]
compound = "Cc1c[nH]c2nccc(Oc3ccc(CC(CN)C(=O)N4CCN(Cc5ccccn5)CC4)cc3F)c12 (single isomer, unassigned)"
assay_readout = "pKi"
result = "> 8.52"

[[record]]
compound = "CN1CCN(CCCNS(=O)(=O)c2cccc(CC(=O)Nc3nc(-c4c[nH]c5ncccc45)cs3)c2)CC1"
assay_readout = "pKi"
result = "> 6.30"

[[record]]
compound = "CCCOC(=O)Nc1cnc2[nH]cc(-c3cccc(N4C[C@@H](C)N(C(C)=O)[C@@H](C)C4)n3)c2c1"
assay_readout = "pKi"
result = "> 6.30"

[[record]]
compound = "NCC(Cc1ccc(Oc2ccnc3[nH]ccc23)cc1)C(=O)NC1CCCCC1 (stereo not shown)"
assay_readout = "pKi"
result = "7.52 to 8.52"

[[record]]
compound = "CS(=O)(=O)Nc1cccc(CC(=O)Nc2nc(-c3ccnc(Cl)c3)cs2)c1"
assay_readout = "pKi"
result = "6.00 to 7.00"

[[record]]
compound = "Cc1c[nH]c2nccc(Oc3cccc(C(CN)CC(=O)NCCc4ccncc4)c3)c12 (stereo not shown)"
assay_readout = "pKi"
result = "7.30 to 8.30"

[[record]]
compound = "CC1=C(C(=O)Nc2ccc3cnccc3c2)C(C2Cc3ccccc3C2)n2nc(CN(C)C)cc2N1 (stereo not shown)"
assay_readout = "pKi"
result = "> 7.30"

[[record]]
compound = "Cc1c[nH]c2nccc(Oc3ccc(C[C@H](N)C(=O)NC4CCCN(C)C4)cc3F)c12 (single isomer, unassigned)"
assay_readout = "pKi"
result = "7.52 to 8.52"

[[record]]
compound = "Cc1c[nH]c2ncnc(Oc3ccc(C[C@H](N)C(=O)NC4(CCO)CCCCC4)cc3F)c12"
assay_readout = "pKi"
result = "> 8.52"

[[record]]
compound = "CC(=O)N1[C@H](C)CN(c2cccc(-c3c[nH]c4ncc(NC(=O)C5CCCC5)cc34)n2)C[C@@H]1C"
assay_readout = "pKi"
result = "5.30 to 6.30"

[[record]]
compound = "COc1cccc(CC(=O)Nc2nc(-c3c[nH]c4nccc(Cl)c34)cs2)c1"
assay_readout = "pKi"
result = "> 6.30"

[[record]]
compound = "COCCN(C)Cc1cc2n(n1)C(c1ccc(C(F)(F)F)c(F)c1)C(C(=O)Nc1ccc3cnccc3c1)=C(C)N2 (stereo not shown)"
assay_readout = "pKi"
result = "> 7.30"

[[record]]
compound = "CN(C)CCCN1CNCC(Cc2ccc(Oc3ccnc4[nH]cc(C#N)c34)cc2)C1=O (stereo not shown)"
assay_readout = "pKi"
result = "7.52 to 8.52"

[[record]]
compound = "C[C@H](Nc1nc(-c2c[nH]c3ncc(Cl)cc23)ncc1F)C(=O)NCCc1cccnc1"
assay_readout = "pKi"
result = "5.30 to 6.30"

[[record]]
compound = "Cc1c[nH]c2nccc(Oc3ccc(C[C@H](N)C(=O)N4CCNCC4)cc3F)c12"
assay_readout = "pKi"
result = "> 8.52"

[[record]]
compound = "CC1=C(C(=O)Nc2ccc3cnccc3c2)C(c2cnc(-c3ccccc3)s2)n2nc(CO)cc2N1 (stereo not shown)"
assay_readout = "pKi"
result = "> 7.30"

[[record]]
compound = "Cc1c[nH]c2nccc(Oc3ccc(C[C@@H](N)C(=O)Nc4ccccc4)cc3F)c12"
assay_readout = "pKi"
result = "> 8.52"

[[record]]
compound = "O=C(Cc1cccc(S(=O)(=O)N2CCNCC2)c1)Nc1nc(-c2c[nH]c3ncccc23)cs1"
assay_readout = "pKi"
result = "> 6.30"

[[record]]
compound = "O=C(Cc1cccc(S(=O)(=O)N2CCOCC2)c1)Nc1ccc(-c2c[nH]c3ncccc23)s1"
assay_readout = "pKi"
result = "> 6.30"

[[record]]
compound = "CNc1cccc(-c2cn(C)c3ncc(Cl)cc23)n1"
assay_readout = "pKi"
result = "5.30 to 6.30"

[[record]]
compound = "O=C(O)c1ccc(-c2c[nH]c3ncc(Cl)cc23)nc1"
assay_readout = "pKi"
result = "5.30 to 6.30"

[[record]]
compound = "N[C@@H](Cc1ccc(Oc2ccnc3[nH]cc(-c4cncs4)c23)cc1)C(=O)N1CCN(Cc2ccccc2)CC1"
assay_readout = "pKi"
result = "> 8.52"

[[record]]
compound = "O=C(N[C@H](CO)c1ccccc1)c1cc(-c2n[nH]c3ncccc23)c[nH]1"
assay_readout = "pKi"
result = "> 6.30"

[[record]]
compound = "O=C(NCc1cccc(S(=O)(=O)N2CCOCC2)c1)c1ccc(-c2c[nH]c3ncccc23)s1"
assay_readout = "pKi"
result = "> 6.30"

